experimentalSystem: human TYK2 (JH2domain-pseudokinase) (Homo sapiens (Human), UniProt P29597)
Sequence (P29597 556-888): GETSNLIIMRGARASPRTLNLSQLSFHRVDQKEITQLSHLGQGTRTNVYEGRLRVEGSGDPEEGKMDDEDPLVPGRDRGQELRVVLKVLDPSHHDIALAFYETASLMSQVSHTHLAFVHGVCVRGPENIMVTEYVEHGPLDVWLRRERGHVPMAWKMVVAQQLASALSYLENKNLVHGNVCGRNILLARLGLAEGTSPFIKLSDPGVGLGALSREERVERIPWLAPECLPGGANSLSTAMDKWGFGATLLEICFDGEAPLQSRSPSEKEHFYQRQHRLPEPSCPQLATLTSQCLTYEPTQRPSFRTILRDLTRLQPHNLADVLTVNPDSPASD
protocolDetails: TYK2 JH2 Domain Binding Assay (KINOMEscan)
pKd: −log10 of the molar value.
endpointLabel: pKd

These recorded examples may help you get a feel for the data.
compound	pKd
CNc1cc(Nc2cc(F)cn(-c3nn(C)cc3C)c2=O)nc2c(C(=O)NC3CC3)cnn12 [I-431]	< 8.00
CNc1cc(Nc2cccc(N3CC[C@@H](OC)C3)n2)nc2c(C(=O)NC3CC3)cnn12 [I-481]	9.00 to 9.70
CNc1cc(-c2nn(C3CCOC3)c3ncccc23)nc2c(C(=O)NC3CC3)cnn12 (centres unmarked) [I-443]	9.00 to 9.70
CNc1cc(-c2cn(C(C)C)c3ncc(F)cc23)nc2c(C(=O)N[C@H]3CC[C@@H]3OC)cnn12 [I-1053]	> 9.70
CNc1cc(Nc2cccn([C@@H]3CCN(CCC#N)C3)c2=O)nc2c(C(=O)N[C@@H]3C[C@@H]3F)cnn12 [I-987]	> 9.70

Query string: Item under review: CNc1cc(Nc2cccnc2OC)nc2c(C(=O)N[C@@H]3CC[C@H]3O)cnn12 (stereo in doubt) [I-363] . Reported pKd?
Result string: > 9.70

Query string: Item under review: CNc1cc(Nc2cc(Cl)cnc2O[C@H]2C[C@@H](OC)C2)nc2c(C(N)=O)cnn12 [I-96] . Reported pKd?
Result string: 9.00 to 9.70

Query string: Item under review: CNc1cc(Nc2cccn([C@H]3CCN(C)C[C@H]3F)c2=O)nc2c(C(=O)NC3CC3)cnn12 [I-687] . Reported pKd?
Result string: 9.00 to 9.70
